# Target Of Assay: Metabotropic glutamate receptor 2 (Homo sapiens, UniProt Q14416)
# Sequence (Q14416 19-872 limits assumed): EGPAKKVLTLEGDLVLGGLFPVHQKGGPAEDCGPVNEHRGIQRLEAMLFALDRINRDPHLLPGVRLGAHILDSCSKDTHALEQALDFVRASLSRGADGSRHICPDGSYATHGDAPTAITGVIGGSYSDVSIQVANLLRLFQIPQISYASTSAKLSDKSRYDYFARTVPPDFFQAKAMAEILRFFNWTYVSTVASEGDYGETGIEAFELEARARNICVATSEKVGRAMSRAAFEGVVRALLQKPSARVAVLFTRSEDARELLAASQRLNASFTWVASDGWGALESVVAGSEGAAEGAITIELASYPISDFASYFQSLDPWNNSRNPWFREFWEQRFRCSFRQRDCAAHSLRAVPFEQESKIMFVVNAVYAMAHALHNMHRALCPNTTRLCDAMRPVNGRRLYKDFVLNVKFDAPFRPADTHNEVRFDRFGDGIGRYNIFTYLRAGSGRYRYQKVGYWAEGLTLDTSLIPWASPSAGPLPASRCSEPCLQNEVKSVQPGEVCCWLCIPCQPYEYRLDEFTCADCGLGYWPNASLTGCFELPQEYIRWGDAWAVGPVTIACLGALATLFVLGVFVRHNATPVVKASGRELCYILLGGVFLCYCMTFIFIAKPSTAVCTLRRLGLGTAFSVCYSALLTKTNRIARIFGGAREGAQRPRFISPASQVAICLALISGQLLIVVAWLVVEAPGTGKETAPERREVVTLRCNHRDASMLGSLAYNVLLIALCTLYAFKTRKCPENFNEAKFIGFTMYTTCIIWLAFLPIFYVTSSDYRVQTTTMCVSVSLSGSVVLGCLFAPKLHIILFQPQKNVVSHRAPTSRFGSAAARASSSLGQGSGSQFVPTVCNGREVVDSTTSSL
# Assay Notes: Positive modulation of human mGluR2 expressed in CHO cells co-expressing Ga16 G-protein assessed as glutamate-induced response by FLIPR assay relative to glutamate
# Assay type: cell-based
# Emax listing for each entry below
Parameter Measured: Emax (%)

| Molecular String | Target Of Assay | Meas Value |
| --- | --- | --- |
| Cn1c(CN2CCN(c3ccccn3)CC2)nc2ccccc21 | Metabotropic glutamate receptor 2 (Homo sapiens, UniProt Q14416) | 100 |
| Cn1c(CN2CCC(c3cccc(C(F)(F)F)c3)CC2)nc2ccccc21 | Metabotropic glutamate receptor 2 (Homo sapiens, UniProt Q14416) | 94 |
| Cn1c(CN2CCN(c3ccccc3C(F)(F)F)CC2)nc2ccccc21 | Metabotropic glutamate receptor 2 (Homo sapiens, UniProt Q14416) | 84 |
